Reported values of Sum Excess HSA Score for individual entries
Tested on: MOLM14 (D835Y) cells
Test: Combination drug screening, Cell Titer Glo, MOLM14 (D835Y) cells;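 note: MOLM14 cells with FLT3 ITD plus D835Y, 500 per well in 1536-well plates, 10-point dose ranges, luminescent viability after 48 h, negative Excess HSA indicates synergy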
Details: combination therapy of PF-06650833 (an IRAK4 selective inhibitor) and the named additional compound; MOLM14(D835Y) cells; 110 × 10 dataset
Respond with the number and no other words.

Check out these entries, answers already filled in.
COCC1(CO)C(=O)C2CCN1CC2 (stereo not shown) [Eprenetapopt/APR-246, APR-246 (Eprenetapopt)]	−566
C[C@@H]1OCC2(CCN(c3cnc(Sc4ccnc(N)c4Cl)c(N)n3)CC2)[C@@H]1N [TNO-155]	−773.7
CCN(C(=O)c1cc(F)ccc1Oc1cncnc1N1CC2(CCN(C[C@H]3CC[C@H](NS(=O)(=O)CC)CC3)CC2)C1)C(C)C [SNDX-5613]	−301.3
COc1cc(F)ccc1-c1cc(Nc2cc(CS(C)(=N)=O)ccn2)ncc1F (single isomer, unassigned; (+)) [(+)-BAY-1251152, BAY1251152]	−386
Nc1cccc2c1CN(C1CCC(=O)NC1=O)C2=O (stereo not shown) [Lenalidomide]	−429.8

stdin: Report Sum Excess HSA Score for CC(C)[C@@H](CS(=O)(=O)C(C)C)N1C(=O)[C@@](C)(CC(=O)O)C[C@H](c2cccc(Cl)c2)[C@H]1c1ccc(Cl)cc1 [AMG-232, navtemadlin] please.
stdout: −1066

stdin: Report Sum Excess HSA Score for NC1(C(=O)N[C@@H](CCO)c2ccc(Cl)cc2)CCN(c2nc[nH]c3nccc2-3)CC1 [AZD-5363, capivasertib] please.
stdout: 47.56

* * *

Reported values of pIC50 for individual entries
Target: IRAK4 (Homo sapiens, UniProt Q9NWZ3)
Sequence (Q9NWZ3 1-460): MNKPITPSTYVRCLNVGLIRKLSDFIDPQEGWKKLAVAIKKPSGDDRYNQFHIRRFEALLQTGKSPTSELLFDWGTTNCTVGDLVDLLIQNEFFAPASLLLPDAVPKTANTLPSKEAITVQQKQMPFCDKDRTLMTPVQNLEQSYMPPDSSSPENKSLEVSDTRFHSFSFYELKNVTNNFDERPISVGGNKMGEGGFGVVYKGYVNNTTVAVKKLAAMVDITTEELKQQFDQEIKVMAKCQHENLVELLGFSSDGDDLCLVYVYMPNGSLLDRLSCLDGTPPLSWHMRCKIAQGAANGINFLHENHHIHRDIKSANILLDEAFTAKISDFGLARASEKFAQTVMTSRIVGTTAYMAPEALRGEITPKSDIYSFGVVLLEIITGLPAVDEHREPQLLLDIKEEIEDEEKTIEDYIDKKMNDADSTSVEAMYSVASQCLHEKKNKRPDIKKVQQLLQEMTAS
Test: RBC HotSpot Kinase Assay, IRAK4
Type: biochemical
Design: purchased RBC (Reaction Biology) HotSpot assay
Details: HotSpot functional assay, isolated kinase enzyme, 33P-ATP
From the text: This assay uses the isolated kinase enzyme. This assay is very useful for determining competition of the inhibitor for ATP and/or substrates and for measuring the kinetics of enzyme inhibition. […] Unlike kinase binding assays that measure competition for ATP, the HotSpot Kinase Assay is a functional assay that measures catalytic activity; as such it measures relative functional potency regardless of the mechanism of enzyme inhibition. […]
To interpret pIC50, take it as minus log10 of a concentration measured in moles per litre.

Check out these entries, answers already filled in.
COc1cc2ncc(-c3ccc(C#N)c(N[C@@H]4CCCNC4)n3)n2nc1C1CC1 [Compound 28a]	7.89
Oc1cc2ncc(-c3nc(N[C@@H]4CCCNC4)c(F)cc3F)n2nc1C1CC1 [Compound 75a]	7.47

stdin: Report pIC50 for COc1cc2ncc(-c3nc(N[C@@H]4CCCNC4)ccc3C#N)n2nc1C1CC1 [Compound 30a] please.
stdout: 6.96
